test system: CAKI-1; experiment: NCI tumour cell line growth inhibition, 48 h
Activity calls are given as the source filed them. No stated cut-off is given here; in the data, active = GI50 up to about 1.1 µM and inactive = higher.
Outcome (select one): active, inactive

query: State the result this test recorded for Cc1c2n(c(=O)[nH]c1=O)C1OC(CO)C(O2)C1N=[N+]=[N-] (stereo unspecified) .
result: inactive

query: State the result this test recorded for NC1C/C(=N\O)c2c(Cl)sc(Cl)c21 (stereo unspecified) .
result: inactive

query: State the result this test recorded for `COc1cc2c(cc1[N+](=O)[O-])C(=O)C(Br)(Br)CCC2` .
result: inactive

query: State the result this test recorded for `COc1c(C)cc(O)cc1C=O` .
result: inactive

query: State the result this test recorded for `Cc1c2c(c(C)n1-c1ccccc1)C(=O)N(CCCCN1CCN(c3ccccc3)CC1)C2=O` .
result: inactive

query: State the result this test recorded for CCCCCCCCOCC(COC(=O)CCCCCCC)OC(=O)CCCCCCC (stereo unspecified) .
result: inactive

query: State the result this test recorded for CCC1OC(=O)C(C)C(OC2CC(C)(O)C(O)C(C)O2)C(C)C(O)C(C)(O)CC(C)C(=O)C(C)C(O)C1C (stereo unspecified) .
result: inactive

query: State the result this test recorded for Cc1cn2c(=O)c3ncn(C4OC(CO)C(O)C4O)c3n(C)c2n1 (stereo unspecified) .
result: inactive

query: State the result this test recorded for CC(=O)SSC1(Cl)C(C)(C)C(Cl)(SSC(C)=O)C1(C)C (stereo unspecified) .
result: inactive

query: State the result this test recorded for `CCOC(=O)C1=CCOc2cc(N(C)C)ccc21` .
result: inactive

query: State the result this test recorded for `Cc1ccc(/N=N/c2c(-c3ccccc3)nn(C(=O)CC(=O)Nc3ccc(Cl)cc3)c2-c2ccccc2)cc1` .
result: inactive

query: State the result this test recorded for `O=C1c2c(O)cccc2C(C(=O)CCCCCC(=O)C2c3cccc(O)c3C(=O)c3c(O)cccc32)c2cccc(O)c21` .
result: inactive

query: State the result this test recorded for `c1ccc2c(c1)CCN2CCc1c[nH]c2ccccc12` .
result: inactive

query: State the result this test recorded for `O=C1c2cc([N+](=O)[O-])sc2C(=O)c2ccsc21` .
result: inactive

query: State the result this test recorded for CCOP(=O)(OCC)C(C)(CC)NC1=NC(C(F)(F)F)(C(F)(F)F)NC(=O)N1 (stereo unspecified) .
result: inactive

query: State the result this test recorded for O=C(O)CN1CCCC(Cc2c[nH]c3ccccc23)C1 (stereo unspecified) .
result: inactive

query: State the result this test recorded for CC(C)(CN1CCCCC1)C(=O)CC(SCCN)c1ccc(Cl)cc1 (stereo unspecified) .
result: inactive

query: State the result this test recorded for COc1ccc(C2S/C(=C\c3cccc(OC)c3)C(=O)N2NC(=O)Cc2ccccc2)cc1 (stereo unspecified) .
result: inactive

query: State the result this test recorded for `O=C(c1ccc(Cl)cc1)N(C(=S)OC12CC3CC(CC(C3)C1)C2)c1ccccc1` .
result: inactive

query: State the result this test recorded for O=C(CC(NC(=O)C(F)(F)F)C(=O)O)OCc1ccccc1 (stereo unspecified) .
result: inactive

query: State the result this test recorded for `Oc1[nH]c(Nc2ccc(Cl)c(C(F)(F)F)c2)nc2ncnc1-2` .
result: inactive

query: State the result this test recorded for `O=S(=O)(O)c1ccc(/N=N/c2ccc(/N=N/c3c(O)ccc4ccccc34)c(S(=O)(=O)O)c2)cc1` .
result: inactive

query: State the result this test recorded for CCOC(=O)C12CC(C)=C(C)CC1CCCc1ccccc12 (stereo unspecified) .
result: inactive

query: State the result this test recorded for `CC[C@H](CC[C@@H](C)[C@H]1CC[C@H]2[C@@H]3CC=C4C[C@@H](O)CC[C@]4(C)[C@H]3CC[C@]12C)C(C)C` .
result: inactive

query: State the result this test recorded for `CN(C)CCN(/C(=N/c1ccccc1)N1CCCC1)c1ccccc1` .
result: inactive

query: State the result this test recorded for `COc1nc(N(C)C)nc2c1[n+](C)cn2C` .
result: inactive

query: State the result this test recorded for `O=Cc1ccccc1COC(=O)c1cc(C(=O)OCc2ccccc2C=O)c(C(=O)OCc2ccccc2C=O)cc1C(=O)OCc1ccccc1C=O` .
result: inactive

query: State the result this test recorded for `Oc1c(Cl)c(Cl)c(O)c(-c2cnc(-c3ncc(-c4c(O)c(Cl)c(Cl)c(O)c4Cl)s3)s2)c1Cl` .
result: inactive

query: State the result this test recorded for COC(=O)C1Cc2c(n(C)c3ccccc23)C(c2ccccc2)N1 (stereo unspecified) .
result: inactive

query: State the result this test recorded for COc1ccc(N2C(=O)C3c4[nH]c5cc(C)ccc5c4C4CCC(C(C)(C)C)CC4C3C2=O)cc1 (stereo unspecified) .
result: inactive

query: State the result this test recorded for `O=C1CSC2(CCN(CCCN3c4ccccc4Sc4ccc(Cl)cc43)CC2)N1` .
result: inactive

query: State the result this test recorded for `c1ccc(CNn2nnc3ccccc32)cc1` .
result: inactive

query: State the result this test recorded for `COc1ccc(-c2cc(-c3ccc(Nc4ccnc5cc(C(F)(F)F)ccc45)cc3)nc(N)c2C#N)cc1` .
result: inactive

query: State the result this test recorded for `Cc1nc2c(o1)/C(=N\c1ccccc1)c1ccccc1C2=O` .
result: inactive

query: State the result this test recorded for `O=C1/C(=C/c2ccccc2)CCCc2ccccc21` .
result: inactive

query: State the result this test recorded for `COc1cc(-c2c[nH]c3ccccc23)nc(-c2c[nH]c3ccccc23)n1` .
result: inactive

query: State the result this test recorded for `O=P(CN1CCOCC1)(c1ccccc1)c1ccccc1` .
result: inactive

query: State the result this test recorded for `C/C(=N\NC(=S)NNC(=S)N(C)c1ccccc1)c1ccccn1` .
result: active

query: State the result this test recorded for `CC(=O)c1cccc(NC(=O)C(=O)Nn2c(N)nnc2N)c1` .
result: inactive

query: State the result this test recorded for C=C1CCC2C(C)(CO)C(O)CCC2(C)C1C/C=C1/CCOC1=O (stereo unspecified) .
result: inactive

query: State the result this test recorded for `Cc1cc(C)c(S(=O)(=O)N2CCN(S(=O)(=O)c3c(C)cc(C)cc3C)OCCCCCO2)c(C)c1` .
result: inactive

Hello, the source for this data is ChEMBL document CHEMBL1201862, in case you need it.
